assay.system: T1, human DLL3 (immobilized human DLL3 or h293-hDLL3 cells) (human, UniProt Q9NYJ7 27-492, limits assumed)
T1 construct: the sentence says 'immobilized human DLL3 or h293-hDLL3 cells'
T1 sequence: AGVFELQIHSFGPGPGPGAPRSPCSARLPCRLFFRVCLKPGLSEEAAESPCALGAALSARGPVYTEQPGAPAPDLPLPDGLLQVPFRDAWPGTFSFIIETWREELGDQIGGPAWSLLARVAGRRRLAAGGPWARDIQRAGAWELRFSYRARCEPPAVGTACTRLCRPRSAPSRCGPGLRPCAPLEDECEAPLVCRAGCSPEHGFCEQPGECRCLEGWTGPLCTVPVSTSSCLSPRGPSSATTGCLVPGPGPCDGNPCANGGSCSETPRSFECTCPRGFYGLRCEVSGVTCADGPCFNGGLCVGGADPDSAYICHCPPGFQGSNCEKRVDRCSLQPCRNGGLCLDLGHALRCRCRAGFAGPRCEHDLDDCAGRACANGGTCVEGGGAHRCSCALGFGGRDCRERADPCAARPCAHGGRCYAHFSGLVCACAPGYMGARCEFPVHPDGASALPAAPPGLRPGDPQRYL
assay.text: hybridoma screening on immobilized human DLL3 or on h293-hDLL3 cells
observation.type: binding result

SC16.129 (antibody, V domains shown, murine mAb; variable regions only) VH: QVQLKESGPGLVAPSQSLSITCTVSGFSLTDYGVSWIRQPPGKGLEWLGVIWGGGSTYYNSALKSRLSISKDNSKSQVFLELNSLQTDDTAIYYCAKHYGHYAAYWGQGTLVTVSA VL: DIQMTQSPASQSASLGESVTITCLASQTIGTWLAWYQQKPGKSPQLLIYAATSLADGVPSRFSGSGSGTKFSFKISSLQAEDFVSYYCQQLYSTPYTFGGGTKLEIK : binds
SC16.15 (antibody, V domains shown, murine mAb; variable regions only) VH: QVQLQQSGAELAKPGASVKMSCKASGYTFTRYWIHWIKQRPGQGLEWIGYINPTTVYTEFNQNFKDKATLTADKSSTTASMQLSSLTSEDSAVYYCARGGSNFFDYWGQGTTLTVSS VL: DIQMTQSPASLAASVGETVAITCRASENIYYNLAWYQQKQGKSPQLLIYTANSLEDGVPSRFSGSGSGTQYSLKINSMQPEDSATYFCKQAYDVPPTFGGGTKLEIK : binds
SC16.104 (antibody, V domains shown, murine mAb; variable regions only) VH: QVQLKESGPDLVQPSQTLSLTCTVSGFSLTFYGVHWVRQPPGKGLEWVGTMGWDDKKYYNSALKSRLSISRDTSKNQVFLKLSSLQTEDTAMYYCTRGGTGFDYWGQGTTLTVSS VL: QIVLSQSPAILSASPGEKVTMTCRASSSVSYIHWYRQKPGSSPKPWIYATSNLASGVPARFSGSGSGTSYSLTISRVEAEDAATYYCQQWSSNPPTFGAGTKLELK : binds
